// data source = patent US20220112288A1

system: T1, Recombinant human CD4 (R&D Systems, Cat. 10327-CD) (human, UniProt P01730 26-390, limits assumed)
T1 construct: Bought reagent; also called huCD4
assay_notes: BLI Octet, non-clonal supernatant on AMC sensor, 100 nM human CD4, 1:1 local fit;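 note: Single-concentration kinetics per supernatant, with the 1:1 model fitted across both the association and dissociation phases of the sensorgram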
metric: kon

# annotated cases, reported kon shown
| binder | kon |
| --- | --- |
| 75110_14P08A (antibody, V domains shown, Tested as non-clonal AlivaMab Mouse Kappa hybridoma supernatant, captured by anti-mouse IgG Fc sensor) VH: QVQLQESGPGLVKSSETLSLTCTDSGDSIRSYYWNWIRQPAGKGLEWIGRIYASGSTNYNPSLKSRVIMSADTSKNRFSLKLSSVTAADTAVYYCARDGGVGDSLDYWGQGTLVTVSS VL: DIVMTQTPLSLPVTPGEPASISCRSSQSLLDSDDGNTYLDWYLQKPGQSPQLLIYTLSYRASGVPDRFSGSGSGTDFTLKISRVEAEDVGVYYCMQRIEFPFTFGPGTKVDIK | 179000 M⁻¹ s⁻¹ |
| 75110_13P21A (antibody, V domains shown, Tested as non-clonal AlivaMab Mouse Kappa hybridoma supernatant, captured by anti-mouse IgG Fc sensor) VH: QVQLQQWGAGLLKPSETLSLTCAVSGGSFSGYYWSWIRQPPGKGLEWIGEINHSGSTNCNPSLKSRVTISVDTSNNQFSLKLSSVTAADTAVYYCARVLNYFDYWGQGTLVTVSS VL: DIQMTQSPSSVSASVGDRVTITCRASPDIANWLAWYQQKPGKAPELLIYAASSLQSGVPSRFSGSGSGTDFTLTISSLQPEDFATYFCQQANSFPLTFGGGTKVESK | 154000 M⁻¹ s⁻¹ |

Now look at this entry.
Query block: What value of measured kon is listed for 75110_04P08A (antibody, V domains shown, Tested as non-clonal AlivaMab Mouse Kappa hybridoma supernatant, captured by anti-mouse IgG Fc sensor) VH: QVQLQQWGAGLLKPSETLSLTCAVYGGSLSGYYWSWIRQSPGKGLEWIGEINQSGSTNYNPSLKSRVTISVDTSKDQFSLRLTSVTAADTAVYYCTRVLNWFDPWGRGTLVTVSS VL: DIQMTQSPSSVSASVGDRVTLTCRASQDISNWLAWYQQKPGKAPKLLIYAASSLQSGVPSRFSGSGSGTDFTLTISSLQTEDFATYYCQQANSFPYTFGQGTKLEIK ?
Result block: 120000 M⁻¹ s⁻¹
